Target: AMPK alpha2/beta2/gamma3 (Homo sapiens) (UniProt P54646+O43741+Q9UGI9)
Sequence (O43741 whole entry, looked up): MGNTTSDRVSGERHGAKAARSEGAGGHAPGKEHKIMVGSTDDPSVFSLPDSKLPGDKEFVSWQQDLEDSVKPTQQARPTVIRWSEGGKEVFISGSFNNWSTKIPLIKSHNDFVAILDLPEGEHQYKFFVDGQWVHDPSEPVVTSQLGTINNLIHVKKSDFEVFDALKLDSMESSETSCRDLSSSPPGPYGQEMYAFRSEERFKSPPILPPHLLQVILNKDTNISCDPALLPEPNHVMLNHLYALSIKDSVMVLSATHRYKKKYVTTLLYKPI
Sequence (P54646 whole entry, looked up): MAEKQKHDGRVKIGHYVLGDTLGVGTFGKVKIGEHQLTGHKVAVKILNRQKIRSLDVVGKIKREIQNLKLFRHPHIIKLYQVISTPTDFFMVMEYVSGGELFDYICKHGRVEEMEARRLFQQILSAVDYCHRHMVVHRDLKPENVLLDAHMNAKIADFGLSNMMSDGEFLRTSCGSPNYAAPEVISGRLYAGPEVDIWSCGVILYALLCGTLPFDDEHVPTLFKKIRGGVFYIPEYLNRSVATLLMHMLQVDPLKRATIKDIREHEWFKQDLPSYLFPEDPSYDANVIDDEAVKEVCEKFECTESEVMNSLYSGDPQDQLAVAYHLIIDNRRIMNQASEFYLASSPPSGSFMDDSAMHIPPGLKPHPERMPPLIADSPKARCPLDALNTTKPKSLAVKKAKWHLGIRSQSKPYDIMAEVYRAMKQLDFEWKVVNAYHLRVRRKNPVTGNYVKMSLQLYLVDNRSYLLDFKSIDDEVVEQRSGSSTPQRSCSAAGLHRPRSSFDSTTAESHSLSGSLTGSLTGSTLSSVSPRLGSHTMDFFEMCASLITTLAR
Sequence (Q9UGI9 whole entry, looked up): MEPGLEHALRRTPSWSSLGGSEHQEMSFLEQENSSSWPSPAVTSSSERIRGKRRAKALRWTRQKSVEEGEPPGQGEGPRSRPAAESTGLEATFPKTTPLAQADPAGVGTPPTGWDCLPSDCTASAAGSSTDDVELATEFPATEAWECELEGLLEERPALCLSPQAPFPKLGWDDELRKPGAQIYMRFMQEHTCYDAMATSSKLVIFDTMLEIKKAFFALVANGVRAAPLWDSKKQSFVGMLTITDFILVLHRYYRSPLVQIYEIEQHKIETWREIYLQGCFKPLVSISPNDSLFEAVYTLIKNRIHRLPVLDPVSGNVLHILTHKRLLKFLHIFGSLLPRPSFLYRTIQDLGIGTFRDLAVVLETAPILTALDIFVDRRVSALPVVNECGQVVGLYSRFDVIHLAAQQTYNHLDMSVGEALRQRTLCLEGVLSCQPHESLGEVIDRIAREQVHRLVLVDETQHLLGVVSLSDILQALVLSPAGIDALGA
Experiment: Activation of human AMPK alpha2/beta2/gamma3 transiently transfected in HEK293 cells assessed as phosphorylation at […]Thr172 by measuring asymptotic max incubated for 20 mins by AlphaLISA assay relative to control
Assay type: cell-based
Details: filed as activator
attribute-measured: max activation (%)
The figure you give is taken to be in %; do not add the unit.

What does the record list as max activation for Cn1cc(F)c(N2C[C@](C)(c3cccc(Cl)c3F)c3c(cnc(NC4CN(C(=O)CC(F)(F)F)C4)c3F)C2=O)n1 ? 90

Data request, read-out max activation, for C[C@]1(c2cccc(Cl)c2F)CN(c2ccc([C@@H]3COCCN3)cn2)C(=O)c2cnc(NC3CN(C(=O)c4cccnn4)C3)c(F)c21 120

Look up max activation for this compound: CN1CCCC(N2CC(Nc3ncc4c(c3F)[C@@](C)(c3cccc(Cl)c3F)CN(c3nn(C)cc3F)C4=O)C2)C1=O (some centres undefined) 139

Find the recorded max activation belonging to CC1(c2cccc(Cl)c2F)CN(c2ncccc2F)C(=O)c2cnc(NC3CN(C(=O)N4CCC[C@@H]4CO)C3)nc21 (some centres undefined) and report it. 106

Which max activation reading was recorded for the compound CNCc1ccc(N2C[C@](C)(c3cccc(Cl)c3F)c3nc(NC4CN(C(=O)[C@@H]5C[C@@H]5F)C4)ncc3C2=O)cc1F ? 154

Request the reported max activation associated with Cn1cc(F)c(N2C[C@](C)(c3cccc(Cl)c3F)c3c(cnc(NC4CN(C(=O)[C@@H]5C[C@@H]5F)C4)c3F)C2=O)n1 81.7

I have this compound here, Cn1cc(F)c(N2C[C@](C)(c3cccc(Cl)c3F)c3c(cnc(NC4CN(C(=O)C5CCC(F)(F)CN5)C4)c3F)C2=O)n1 (some centres undefined) , and I need its recorded max activation. 85.5

Find the recorded max activation belonging to C[C@]1(c2cccc(Cl)c2F)CN(c2ncccc2F)C(=O)c2cnc(NC3CN(C(=O)C4(O)CC4)C3)c(F)c21 and report it. 112

Request the reported max activation associated with CC1(c2ccc(F)c(Cl)c2F)CN(c2ccc(CO)cn2)C(=O)c2cnc(NC3CN(C(=O)N4C[C@@H]5C[C@H]4CO5)C3)c(F)c21 (some centres undefined) 113
